Species: Sus scrofa
Assay: Inhibition of porcine heart malate dehydrogenase assessed as reduction in enzyme inhibition at 3 times IC50 preincubated for 5 min followed by nicotinamide adenine dinucleotide addition and monitered for 90 sec in presence of 0.01% Triton-X100 by spectrophotometric method relative to control
Type: tissue-based
Design: scale not given: the % may be the effect or the level left
Activity under 80% gets Satisfied, anything at or over 80% gets Not satisfied.

[
  {
    "compound": "Oc1c(I)cc(Cl)c2cccnc12",
    "groupLabel": "Satisfied"
  },
  {
    "compound": "O=C1c2c(O)cccc2Cc2cccc(O)c21",
    "groupLabel": "Not satisfied"
  },
  {
    "compound": "O=C1C=C2CC3(O)COc4c(ccc(O)c4O)C3=C2C=C1O (centres undefined)",
    "groupLabel": "Satisfied"
  },
  {
    "compound": "Cc1cc(-c2ccc(/N=N/c3ccc4c(S(=O)(=O)O)cc(S(=O)(=O)O)c(N)c4c3O)c(C)c2)ccc1/N=N/c1ccc2c(S(=O)(=O)O)cc(S(=O)(=O)O)c(N)c2c1O",
    "groupLabel": "Satisfied"
  },
  {
    "compound": "O=C(O)c1cccc(CN2C(=O)/C(=C(\\c3ccccc3)c3ccc(Cl)cc3)c3ccccc32)c1",
    "groupLabel": "Satisfied"
  },
  {
    "compound": "COC(=O)C1=C(C)NC(C)=C(C(=O)OC(C)(C)CN(C)CCC(c2ccccc2)c2ccccc2)C1c1cccc([N+](=O)[O-])c1 (centres undefined)",
    "groupLabel": "Not satisfied"
  },
  {
    "compound": "C/C(=C\\c1ccc(C(=O)O)cc1)c1ccc2c(c1)C(C)(C)CCC2(C)C",
    "groupLabel": "Not satisfied"
  },
  {
    "compound": "Brc1c(Br)c(Br)c2[nH]nnc2c1Br",
    "groupLabel": "Satisfied"
  },
  {
    "compound": "Cc1c(C)c2c(c(C)c1O)CCC(C)(CCCC(C)CCCC(C)CCCC(C)C)O2 (centres undefined)",
    "groupLabel": "Satisfied"
  },
  {
    "compound": "COc1ccc(-c2ccc3cc(C(=O)O)ccc3c2)cc1C12CC3CC(CC(C3)C1)C2",
    "groupLabel": "Satisfied"
  },
  {
    "compound": "Cc1c(-c2ccc(O)cc2)n(Cc2ccc(OCCN3CCCCCC3)cc2)c2ccc(O)cc12",
    "groupLabel": "Satisfied"
  },
  {
    "compound": "Cc1cc(O)c2c(=O)c3c(O)cc(O)c4c5c(O)cc(O)c6c(=O)c7c(O)cc(C)c8c1c2c(c34)c(c78)c65",
    "groupLabel": "Not satisfied"
  },
  {
    "compound": "O=C(O)c1ccc(N2C(=O)/C(=C\\c3ccc(-c4ccc([N+](=O)[O-])cc4)o3)C=C2c2ccccc2)cc1",
    "groupLabel": "Satisfied"
  },
  {
    "compound": "COC(=O)C1=C(C)NC(C)=C(C(=O)OCCN2CCN(C(c3ccccc3)c3ccccc3)CC2)C1c1cccc([N+](=O)[O-])c1 (centres undefined)",
    "groupLabel": "Not satisfied"
  },
  {
    "compound": "CC(C)(C)[C@H]1CC[C@H](CC2=C(O)C(=O)c3ccccc3C2=O)CC1",
    "groupLabel": "Not satisfied"
  },
  {
    "compound": "COc1c2ccc(-c3ccccc3)oc-2cc(=O)c1C",
    "groupLabel": "Not satisfied"
  },
  {
    "compound": "Cc1cc2c(C(C)C)c(O)c(O)c(C=O)c2c(O)c1-c1c(C)cc2c(C(C)C)c(O)c(O)c(C=O)c2c1O",
    "groupLabel": "Not satisfied"
  },
  {
    "compound": "CC(C)=CC[C@@H](O)C1=CC(=O)c2c(O)ccc(O)c2C1=O",
    "groupLabel": "Not satisfied"
  }
]

Entry source: ChEMBL document CHEMBL5029184
